assay system: T1, Human HEVM recombinant protein (Sino Biological, 10334-H02H) (human, UniProt Q92956 39-202)
T1 construct: construct known only by catalogue number; also called HVEM; human HVEM
T1 sequence (looked up): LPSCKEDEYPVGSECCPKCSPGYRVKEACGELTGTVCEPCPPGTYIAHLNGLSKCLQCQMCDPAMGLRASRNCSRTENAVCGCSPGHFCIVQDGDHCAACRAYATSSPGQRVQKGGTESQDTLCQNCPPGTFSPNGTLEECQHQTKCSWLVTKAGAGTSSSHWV
protocol text: competition ELISA, competitor BTLA-His
Experimental: The competitive activity of HVEM antibody to BTLA or LIGHT was evaluated with ELISA-based competitive assay. Briefly Human HEVM recombinant protein (Sino Biological, 10334-H02H, 4 ug/ml, 100 ul/well) was coated to ELISA plate (Thermo Scientific, 469949, 4C overnight). […] Plate was read at 450 nm. The IC50 was calculated using GraphPad Prism software (GraphPad Software, Inc. San Diego, CA, USA).
readout kind: pIC50
Scale explanation: pIC50 corresponds to minus log10 of a concentration expressed in moles per litre.

Reference set, count: 4
binder | measurement
Ab_008 (H5S14-11A10A) (antibody, V domains shown, also called Ab_8) VH: EVKLVESGGGLVKPGGSLRLSCAASGFTFSSFAMSWIRQTPEKGLEWVASITTGGSSYSPDSLKGRFTISRDNVRNIVYLQMSSLRSEDTAMYACARGGGGNYFWFAYWGQGTLVTVSA VL: DVVMTQTPLSLPVSLGDQASISCRSSQSLVHSNGNTYLHWYLQKPGQSPKLLIYKVSNRFSGVPDRFSGSGSGTDFTLKISRVEAEDLGVYFCSQSIHVPFTFGSGTKLEIK | 8.72
Ab_029 (H5S15-14A14B) (antibody, V domains shown, also called Ab_29) VH: EVQLQQSGPELVKPGASVKMSCKASGYTFTSYVMHWVKQKPGQGLEWIGYINPYNDDTNCNEKFKGKATLTSDKSSSTAYMELSRLTSEDSAVYYCAKARGYGSTFYYSMDYWGQGTSVTVSS VL: DIVMTQSQKFMSTSVGDRVSVTCKASQNVGTNVAWYQQRPGQSPKSLIYSASYRYSGVPDRFTGSGSGTDFTLTISNVQSEDLADYFCQQYNSYPYTFGGGAKLEIK | 8.89
Ab_009 (H5S14-8A7A) (antibody, V domains shown, also called Ab_9) VH: EVKLVESGGDLVKPGGSLKLSCAASGFTFSNYAMSWVRQTPEKRLEWVASISTGGTTSYYSDSVKGRFTISRDNARNILYLQMSSLRSEDTAMYYCARGGGGNYFWFTYWGQGTLVTISA VL: DVVMTQTPLSLPVSLGDQASISCRSSQSLVHSNGNTYLHWYLQKPGQSPKLLIYKVSNRFSGVPDRFSGSGSGTDFTLKISRVEAEDLGVYFCSQSTHVPFTFGSGTKLEIK | 8.68
Ab_043 (H5S15-29A24A) (antibody, V domains shown, also called Ab_43) VH: EVQLQQSGAELVRPGALVKLSCKASGFNIKDDYMHWVKQRPEQGLEWIGWIDPENGNTIYDPKFQGKASITADTSSNTAYLQLSSLTSEDTAVYYCARGYSSSPYWGQGTLVTVSA VL: DIVLTQSPASLAVSLGQRATISCKASQSVDYDGNSYMNWYQQKPRQPPKLLIYAASNLESGIPARFRGSGSGTDFTLNIHPVEEEDAATYYCQQSNEDPFTFGSGTKLEIK | 8.96

# ---- query binder ----
Which value of pIC50 has been reported for Ab_073 (H5S20-9A9A) (antibody, V domains shown, also called Ab_73) VH: EVQLQQSGADLVKPGASVKLSCTASGFNIRDTYMHWVNQRPEQGLEWIGRIDPANGNTKYAPKFQGRATITADTSSNTAYLHLSSLTSEDTAVYYCAGYGNSPWFAYWGQGTLVTVSA VL: DVLMTQTPLSLPVNLGDQASISCRSSQSIVHSNGNTYLEWYLQKPGQSPKLLIYKVSNRFSGVPDRFSGSGSGTDFTLKISRVEAEDLGVYYCFQGSHVPLTFGAGTKLELK in the records?
8.49

Origin of measurements: patent US20240317871A1
